- assay.method.text: Biological activity expressed as the Log potency ratio (PR) of the compound relative to a standard compound 63
- Format: ADME
- condition.label: octanol/water
measurement.type: Log PR
// print number alone

Problem: Give the measured Log PR for "CCCc1c2nc(C(=O)[O-])cc(N)c2cc2c(=O)cc(C(=O)[O-])oc12.[Na+].[Na+]"
Solution: 0.12

Problem: Give the measured Log PR for "CCCc1c2nc(C(=O)[O-])cc(Br)c2cc2c(=O)cc(C(=O)[O-])oc12.[Na+].[Na+]"
Solution: 0.02

Problem: Give the measured Log PR for "CCCc1c2nc(C(=O)[O-])cc(C=O)c2cc2c(=O)cc(C(=O)[O-])oc12.[Na+].[Na+]"
Solution: -0.63

Problem: Give the measured Log PR for "CCCc1c2nc(C(=O)[O-])cc(NC)c2cc2c(=O)cc(C(=O)[O-])oc12.[Na+].[Na+]"
Solution: -0.66

Problem: Give the measured Log PR for "CCCc1c2nc(C(=O)[O-])cc(OCC)c2cc2c(=O)cc(C(=O)[O-])oc12.[Na+].[Na+]"
Solution: -0.4

Problem: Give the measured Log PR for "CCCc1c2nc(C(=O)[O-])cc(NCC)c2cc2c(=O)cc(C(=O)[O-])oc12.[Na+].[Na+]"
Solution: -2.15

Problem: Give the measured Log PR for "CCCc1c2nc(C(=O)[O-])cc(N3CCCC3)c2cc2c(=O)cc(C(=O)[O-])oc12.[Na+].[Na+]"
Solution: 0.14

Problem: Give the measured Log PR for "CCCc1c2nc(C(=O)[O-])cc(C(F)(F)C(F)(F)F)c2cc2c(=O)cc(C(=O)[O-])oc12.[Na+].[Na+]"
Solution: 0.45

----------
Readings of Log PR for the listed molecules
- assay.method.text: Biological activity expressed as the Log potency ratio (PR) of the compound relative to a standard compound 63
- Assay type: ADME
- condition.label: octanol/water
// print number alone

Problem: Give the measured Log PR for "CCCc1c2nc(C(=O)[O-])cc(C(F)(F)F)c2cc2c(=O)cc(C(=O)[O-])oc12.[Na+].[Na+]"
Solution: 0.4

Problem: Give the measured Log PR for "CCCc1c2nc(C(=O)[O-])cc(N(C)C(C)=O)c2cc2c(=O)cc(C(=O)[O-])oc12.[Na+].[Na+]"
Solution: -2.05

Problem: Give the measured Log PR for "CCCc1c2nc(C(=O)[O-])cc(C(F)(F)C(F)(F)C(F)(F)F)c2cc2c(=O)cc(C(=O)[O-])oc12.[Na+].[Na+]"
Solution: 0.57

Problem: Give the measured Log PR for "CCCc1c2nc(C(=O)[O-])cc(-n3cccc3)c2cc2c(=O)cc(C(=O)[O-])oc12.[Na+].[Na+]"
Solution: 0.43

Problem: Give the measured Log PR for "CCCc1c2nc(C(=O)[O-])cc(/C=C/c3ccccc3)c2cc2c(=O)cc(C(=O)[O-])oc12.[Na+].[Na+]"
Solution: 0.8

Problem: Give the measured Log PR for "CCCc1c2nc(C(=O)[O-])cc(C)c2cc2c(=O)cc(C(=O)[O-])oc12.[Na+].[Na+]"
Solution: -0.42

Problem: Give the measured Log PR for "CCCc1c2nc(C(=O)[O-])cc(NC(=O)Nc3ccccc3)c2cc2c(=O)cc(C(=O)[O-])oc12.[Na+].[Na+]"
Solution: -0.05

Values were extracted from ChEMBL document CHEMBL1124264.
